- Test system: Bacteroides clarus
- Protocol Summary: growth AUC relative to DMSO control (median of replicates) (fraction); higher = more growth (less inhibition), active = hit call of the paper
- Particulars: 20 µM; 24 h
Reported Property: growth AUC

Known results for molecules:
Cc1nc(N(C)C=O)nc(OC(=O)N(C)C)c1C = 0.998 (inactive)
Nc1nc(N)[nH]c(=O)n1 = 0.994 (inactive)
CCOC1Oc2ccc(OS(C)(=O)=O)cc2C1(C)C (stereo not drawn) = 0.978 (inactive)
CCCCc1c(C)nc(N(C)C)[nH]c1=O = 0.966 (inactive)
N#Cc1sc2c(=O)c3ccccc3c(=O)c=2sc1C#N = 0.948 (inactive)
Clc1ccc(C(c2ccc(Cl)cc2)C(Cl)(Cl)Cl)cc1 = 0.763 (active)

Provide growth AUC for all items below, preserving their order.
1. CCOP(=S)(OCC)Oc1ccc(S(C)=O)cc1 (stereo not drawn)
2. COc1ccc(/C(=C/C(=O)N2CCOCC2)c2ccc(Cl)cc2)cc1OC
3. CCS(=O)c1c(C#N)nn(-c2c(Cl)cc(C(F)(F)F)cc2Cl)c1N (stereo not drawn)

*A*
1: 0.967 (inactive); 2: 1 (inactive); 3: 0.996 (inactive)

---

- System: Fusobacterium nucleatum subsp. animalis
- Protocol Summary: growth AUC relative to DMSO control (median of replicates) (fraction); higher = more growth (less inhibition), active = hit call of the paper
- Particulars: 20 µM; 24 h
Task for the reader: assign each of the following molecules its reported growth AUC.
Give bare numbers.

Known results for molecules:
CCCCCCCC(=O)Oc1c(I)cc(C#N)cc1I = 1.16
COC(=O)C1(O)c2ccccc2-c2ccccc21 = 0.911
CC1(C)C(C(=O)OC(C#N)c2cccc(Oc3ccccc3)c2)C1(C)C (stereo not given) = 0.928
Cc1ccccc1[N+](=O)[O-] = 1.03
C=C(C)CN(CC)c1c([N+](=O)[O-])cc(C(F)(F)F)cc1[N+](=O)[O-] = 0.912
C1CCC(NC2CCCCC2)CC1.O=NO = 1

Provide growth AUC for all items below, preserving their order.
1. COP(=O)(OC)OC1=C(Cl)C2C=CCC12 (stereo not given)
2. CO/N=C(/C(=O)OC)c1ccccc1COc1ccccc1C
3. CCOP(=O)(NC(C)C)Oc1ccc(S(C)(=O)=O)c(C)c1 (stereo not given)
4. COP(=O)(OC)Oc1ccc(SC)c(C)c1

*A*
1: 1.04; 2: 1.02; 3: 1.03; 4: 0.986

---

- Tested on: Bifidobacterium longum subsp. longum
- Protocol Summary: growth AUC relative to DMSO control (median of replicates) (fraction); higher = more growth (less inhibition), active = hit call of the paper
- Particulars: 20 µM; 24 h
Reported Property: growth AUC
Answers are plain numbers.

COC(=O)C(C)N(C(=O)c1ccco1)c1c(C)cccc1C (stereo not drawn) = 1.1
CC(C)[C@@H](Nc1ccc(C(F)(F)F)cc1Cl)C(=O)OC(C#N)c1cccc(Oc2ccccc2)c1 (stereo partly drawn) = 1.02
CS(=O)(=O)c1ccc(C(=O)C2C(=O)CCCC2=O)c(Cl)c1COCC(F)(F)F = 1.01
CC(C)=CC1C(C(=O)OC(C#N)c2cccc(Oc3ccccc3)c2)C1(C)C (mixture of isomers) = 0.914

Provide growth AUC for all items below, preserving their order.
1. C[C@@H](Oc1ccc(Cl)cc1Cl)C(=O)O
2. CCOc1cc(Oc2ccc(C(F)(F)F)cc2Cl)ccc1[N+](=O)[O-]
3. O=C(O)C(F)(F)C(F)(F)C(F)(F)C(F)(F)C(F)(F)C(F)(F)C(F)(F)C(F)(F)C(F)(F)F
4. ClC1=C(Cl)[C@]2(Cl)[C@@H]3[C@@H]4C[C@@H]([C@H]5O[C@@H]45)[C@@H]3[C@@]1(Cl)C2(Cl)Cl

*A*
[0.982, 1.03, 0.939, 1.02]

---

- Tested on: Odoribacter splanchnicus
- Protocol Summary: growth AUC relative to DMSO control (median of replicates) (fraction); higher = more growth (less inhibition), active = hit call of the paper;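 active = AUC reduced over 20% with Padj below 0.05 in at least 2 of 3 replicates; inactive = otherwise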
- Particulars: 20 µM; 24 h
Respond using exactly one of the listed classes: active, inactive

Illustrative cases are given below, each with its answer.
Oc1c(Br)cc(Br)cc1Br = inactive
CCC(C)(C)c1ccc(O)cc1 = inactive
C[C@H]1[C@H](c2ccc(Cl)cc2)SC(=O)N1C(=O)NC1CCCCC1 = inactive
CCNc1nc(Cl)nc(NC(C)C)n1 = inactive

Then this compound:
*Q* What is the recorded call for this compound in the test? CC(C)C(C(=O)OC(C#N)c1cccc(Oc2ccccc2)c1)c1ccc(OC(F)F)cc1 (centres undefined)
*A* inactive

---

Task for the reader: assign each of the following molecules its reported growth AUC.
- Tested on: Bacteroides dorei
- Protocol Summary: growth AUC relative to DMSO control (median of replicates) (fraction); higher = more growth (less inhibition), active = hit call of the paper
- Particulars: 20 µM; 24 h
Give bare numbers.

CCNc1nc(Cl)nc(NC(C)(C)C)n1 = 0.978

Provide growth AUC for all items below, preserving their order.
1. CNC(=O)N(C)c1nc2ccccc2s1
2. CC1(C)C(C=C(Cl)Cl)C1C(=O)OC(C#N)c1cccc(Oc2ccccc2)c1 (stereo unspecified)
3. CC(C)(O)C(Cl)(Cl)Cl.CC(C)(O)C(Cl)(Cl)Cl.O
4. CNC(=O)Oc1cccc2c1OC(C)(C)C2
5. CCCSP(=S)(OCC)Oc1ccc(Cl)cc1Cl (stereo unspecified)

*A*
1: 1; 2: 1.02; 3: 0.973; 4: 0.999; 5: 0.98

---

- Test system: Bacteroides caccae
- Protocol Summary: growth AUC relative to DMSO control (median of replicates) (fraction); higher = more growth (less inhibition), active = hit call of the paper
- Particulars: 20 µM; 24 h
Task for the reader: assign each of the following compounds its reported growth AUC.
Give bare numbers.

CCS(=O)(=O)CCSP(=O)(OC)OC = 1.02
Nc1cc(Cl)cc(C(=O)O)c1Cl = 0.975
CCN(CC)C(=S)[S-].O.O.O.[Na+] = 0.981
CC(C)OP(=O)(OC(C)C)SCc1ccccc1 = 0.976

Provide growth AUC for all items below, preserving their order.
1. Fc1ccc(C2(Cn3cncn3)OC2c2ccccc2Cl)cc1 (stereo not drawn)
2. CC(C)C1(C)N=C(c2nc3ccccc3cc2C(=O)O)NC1=O (stereo not drawn)
3. ClC1=C(Cl)C2(Cl)[C@H]3[C@H]4O[C@H]4[C@H](Cl)[C@H]3C1(Cl)C2(Cl)Cl (single isomer, unassigned; isomer a)
4. COP(=O)(OC)O/C(C)=C/C(=O)N(C)C

*A*
1.01
1.01
0.99
1.01

Provide growth AUC for all items below, preserving their order.
1. O=C(NC(=O)c1c(F)cccc1F)Nc1ccc(OC(F)(F)C(F)OC(F)(F)F)c(Cl)c1 (stereo not drawn)
2. C/C(=N\NC(=O)Nc1cc(F)cc(F)c1)c1ncccc1C(=O)[O-].[Na+]
3. O=c1c2cc(F)ccc2nc(-n2cncn2)n1-c1ccc(Cl)cc1Cl
4. O=C(NC(=O)c1c(F)cccc1F)Nc1ccc(Cl)cc1
5. COP(=O)(OC)Oc1ccc(S(C)=O)c(C)c1 (stereo not drawn)

*A*
1. 0.991
2. 1
3. 0.976
4. 1.01
5. 0.986

---

Task for the reader: assign each of the following compounds its reported growth AUC.
- System: Bacteroides thetaiotaomicron
- Protocol Summary: growth AUC relative to DMSO control (median of replicates) (fraction); higher = more growth (less inhibition), active = hit call of the paper
- Particulars: 20 µM; 24 h
Give bare numbers.

Known results for compounds:
O=[N+]([O-])c1cc(C(F)(F)F)c(Cl)c([N+](=O)[O-])c1Nc1ncc(C(F)(F)F)cc1Cl = 0.0138
OCC(O)CCl (stereo not given) = 0.984
CS(=O)(=O)c1ccc(C(=O)C2C(=O)CCCC2=O)c(Cl)c1COCC(F)(F)F = 0.989

Provide growth AUC for all items below, preserving their order.
1. CO/C=C(/C(=O)OC)c1ccccc1Oc1cc(Oc2ccccc2C#N)ncn1
2. O=C(Nc1ccccc1)N(Cc1ccc(Cl)cc1)C1CCCC1
3. Cn1cc(-c2ccccc2)c(=O)c(-c2cccc(C(F)(F)F)c2)c1

*A*
[0.965, 0.964, 0.967]

---

- Test system: Roseburia intestinalis
- Protocol Summary: growth AUC relative to DMSO control (median of replicates) (fraction); higher = more growth (less inhibition), active = hit call of the paper
- Particulars: 20 µM; 24 h
Outcome label depends on growth AUC relative to 1: at/above gives Met, below gives Not met.

Illustrative cases are given below, each with its answer.
O=P(OC(CCl)CCl)(OC(CCl)CCl)OC(CCl)CCl = Not met
CNc1cnn(-c2cccc(C(F)(F)F)c2)c(=O)c1Cl = Met

Then this compound:
*Q* Check the entry CC1(C)CON(Cc2ccccc2Cl)C1=O : does growth AUC equal or exceed 1?
*A* Not met

Source: the supplement of paper PMC12669032
